subject_of_test: Cereblon (CRBN) protein (Homo sapiens)
Construct: DNA label for qPCR detection (not a peptide tag); host or cells: HEK-293
protocol: CRBN binding affinity, E3scan (% Ctrl)
particulars: lower % Ctrl = stronger binding, DMSO 100% Ctrl
parameter: remaining activity at 5 µM

Take a look at these entries with their results.
1. O=C1CCC(N2Cc3cc(C(=O)c4c[nH]c5ccc(-c6ccccc6)cc45)ccc3C2=O)C(=O)N1 (stereo not drawn); 10 to 35%
2. O=C1CCC(N2Cc3cc(C(=O)c4cc(-c5ccccc5)cs4)ccc3C2=O)C(=O)N1 (stereo not drawn); 0 to 0.1%
3. O=C1CCC(N2Cc3cc(C(=O)c4cccc(Nc5ccccc5)c4)ccc3C2=O)C(=O)N1 (stereo not drawn); 0 to 0.1%

Okay, now this molecule:
// query remaining activity at 5 µM value for entry O=C1CCC(N2Cc3cc(C(=O)C4CCN(Cc5ccccc5)CC4)ccc3C2=O)C(=O)N1 (stereo not drawn)
0 to 0.1%

###

subject_of_test: Cereblon (CRBN) protein (Homo sapiens)
Construct: DNA label for qPCR detection (not a peptide tag); host or cells: HEK-293
protocol: CRBN binding affinity, E3scan (% Ctrl)
particulars: lower % Ctrl = stronger binding, DMSO 100% Ctrl
parameter: remaining activity at 5 µM

Take a look at these entries with their results.
1) O=C1CCC(N2Cc3cc(C(=O)c4ccccc4)ccc3C2=O)C(=O)N1 (stereo not shown); 1 to 10%
2) O=C1CCC(N2Cc3cc(C(=O)c4cn(-c5ccccc5)c5ccc(-c6ccccc6)cc45)ccc3C2=O)C(=O)N1 (stereo not shown); 10 to 35%
3) O=C1CCC(N2Cc3cc(C(=O)c4c[nH]c5ccccc45)ccc3C2=O)C(=O)N1 (stereo not shown); 0.1 to 1%

// query remaining activity at 5 µM value for entry O=C1CCC(N2Cc3cc(C(=O)c4n[nH]c5ccccc45)ccc3C2=O)C(=O)N1 (stereo not shown)
0 to 0.1%

Continue with O=C1CCC(N2Cc3cc(C(=O)c4ccc(Nc5ccccc5)cc4)ccc3C2=O)C(=O)N1 (stereo not shown)
0 to 0.1%

Continue with O=C1CCC(N2Cc3cc(C(=O)n4ncc5ccccc54)ccc3C2=O)C(=O)N1 (stereo not shown)
0 to 0.1%

###

subject_of_test: Cereblon (CRBN) protein (Homo sapiens)
Construct: DNA label for qPCR detection (not a peptide tag); host or cells: HEK-293
protocol: CRBN binding affinity, E3scan (% Ctrl)
particulars: lower % Ctrl = stronger binding, DMSO 100% Ctrl
Measured remaining activity at 5 µM, listed per entry.

// query remaining activity at 5 µM value for entry O=C1CCC(N2Cc3cc(C(=O)N4CCCC4)ccc3C2=O)C(=O)N1 (centres unmarked)
0 to 0.1%

Continue with O=C1CCC(N2Cc3cc(C(=O)c4cc5ccccc5o4)ccc3C2=O)C(=O)N1 (centres unmarked)
0 to 0.1%

Continue with O=C1CCC(N2Cc3cc(C(=O)N4Cc5ccccc5C4)ccc3C2=O)C(=O)N1 (centres unmarked)
0 to 0.1%

Continue with O=C1CCC(N2Cc3cc(C(=O)c4ccc5cn[nH]c5c4)ccc3C2=O)C(=O)N1 (centres unmarked)
0 to 0.1%

Continue with O=C1CCC(N2C(=O)c3ccc(C(=O)c4cc5ccccc5[nH]4)cc3C2=O)C(=O)N1 (centres unmarked)
1 to 10%

###

subject_of_test: Cereblon (CRBN) protein (Homo sapiens, UniProt Q96SW2)
Construct: DNA label for qPCR detection (not a peptide tag); host or cells: HEK-293
Sequence (Q96SW2 whole entry): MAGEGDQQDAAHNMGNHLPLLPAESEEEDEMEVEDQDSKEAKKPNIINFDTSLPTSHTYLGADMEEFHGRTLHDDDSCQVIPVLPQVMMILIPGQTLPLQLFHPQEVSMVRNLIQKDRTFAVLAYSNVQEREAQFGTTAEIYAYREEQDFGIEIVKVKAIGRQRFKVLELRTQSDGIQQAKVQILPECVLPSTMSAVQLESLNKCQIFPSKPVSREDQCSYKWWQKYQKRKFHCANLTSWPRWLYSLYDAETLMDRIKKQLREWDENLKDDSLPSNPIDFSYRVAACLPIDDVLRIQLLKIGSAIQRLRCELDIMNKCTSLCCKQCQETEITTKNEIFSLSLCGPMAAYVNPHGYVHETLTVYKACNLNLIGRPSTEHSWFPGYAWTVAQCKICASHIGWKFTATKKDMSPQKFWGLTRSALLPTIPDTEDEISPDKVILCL
protocol: CRBN binding affinity, E3scan (% Ctrl)
particulars: lower % Ctrl = stronger binding, DMSO 100% Ctrl
parameter: remaining activity at 5 µM

Take a look at these entries with their results.
1. O=C1CCC(N2Cc3cc(C(=O)c4ccc(-c5ccccc5)[nH]4)ccc3C2=O)C(=O)N1 (stereo not shown) [Compound 28]; 1 to 10%
2. O=C1CCC(N2Cc3nc(C(=O)c4ccccc4)ccc3C2=O)C(=O)N1 (stereo not shown) [Compound 5]; 1 to 10%
3. CNc1ccc2cc(C(=O)c3ccc4c(c3)CN(C3CCC(=O)NC3=O)C4=O)[nH]c2c1 (stereo not shown) [Compound 22]; 0 to 0.1%
4. O=C1CCC(N2Cc3cc(C(=O)c4cn(-c5ccccc5)c5ccccc45)ccc3C2=O)C(=O)N1 (stereo not shown) [Compound 35]; 0 to 0.1%
5. O=C1CCC(N2Cc3cc(C(=O)c4cc(-c5ccccc5)c[nH]4)ccc3C2=O)C(=O)N1 (stereo not shown) [Compound 27]; 0 to 0.1%

Okay, now this compound:
// query remaining activity at 5 µM value for entry O=C1CCC(N2Cc3cc(C(=O)c4ccccn4)ccc3C2=O)C(=O)N1 (stereo not shown) [Compound 12]
0 to 0.1%

###

subject_of_test: Cereblon (CRBN) protein (Homo sapiens)
Construct: DNA label for qPCR detection (not a peptide tag); host or cells: HEK-293
protocol: CRBN binding affinity, E3scan (% Ctrl)
particulars: lower % Ctrl = stronger binding, DMSO 100% Ctrl
parameter: remaining activity at 5 µM

Take a look at these entries with their results.
1) O=C1CCC(N2Cc3cc(C(=O)c4cccc(-c5ccccc5)c4)ccc3C2=O)C(=O)N1 (stereo not shown); 0 to 0.1%
2) O=C1CCC(N2Cc3cc(C(=O)N4Cc5cccc6cccc4c56)ccc3C2=O)C(=O)N1 (stereo not shown); 0 to 0.1%
3) O=C1CCC(N2Cc3cc(C(=O)c4coc5ccccc45)ccc3C2=O)C(=O)N1 (stereo not shown); 1 to 10%

Okay, now this compound:
Checklist item: remaining activity at 5 µM tested on Cereblon (CRBN) protein (Homo sapiens), entry O=C1CCC(N2Cc3cc(C(=O)c4cc5ccccc5[nH]4)ccc3C2=O)C(=O)N1 (stereo not shown) , value?
0 to 0.1%
